Tested on: Pseudomonas aeruginosa
Test: Inhibition of Pseudomonas aeruginosa PBP3 acylation activity by BOCILLIN FL-based assay
property: Kinact

Solved entries:
[[record]]
compound = "C[C@H]1[C@H](NC(=O)/C(=N\\OC(C)(C)C(=O)O)c2csc(N)n2)C(=O)N1C(=O)NS(=O)(=O)N1CCN(C(=O)c2cc(=O)c(O)c[nH]2)CC1"
measurement = "2.4 ×10⁴ /M/s"

[[record]]
compound = "C[C@H]1[C@H](NC(=O)/C(=N\\OC(C)(C)C(=O)O)c2csc(N)n2)C(=O)N1C(=O)NS(=O)(=O)N1C[C@@H](NC(=O)c2cc(=O)c(O)c[nH]2)CC1=O"
measurement = "1.5 ×10⁵ /M/s"


IN: Please give the measured Kinact for this compound: CC(C)(O/N=C(\C(=O)NC1CN(C(=O)NS(=O)(=O)N2CCN(NC(=O)c3cc(=O)c(O)c[nH]3)C2=O)C1=O)c1csc(N)n1)C(=O)O (stereo unspecified) [PIRAZMONAM]
OUT: 1.4 ×10⁵ /M/s

IN: Requested field: Kinact. Item: "C[C@H]1[C@H](NC(=O)/C(=N\OC(C)(C)C(=O)O)c2csc(N)n2)C(=O)N1C(=O)NS(=O)(=O)N1C[C@@H](NC(=O)NCc2cc(=O)c(O)c[nH]2)CC1=O"
OUT: 2.4 ×10⁴ /M/s

IN: # lookup: Kinact of "C[C@H]1[C@H](NC(=O)/C(=N\OC(C)(C)C(=O)O)c2csc(N)n2)C(=O)N1C(=O)NS(=O)(=O)N1C[C@@H](NC(=O)[C@@H]2CCCN2C(=O)c2cc(=O)c(O)c[nH]2)CC1=O"
OUT: 1.4 ×10⁴ /M/s

IN: Entry "C[C@H]1[C@H](NC(=O)/C(=N\OCC(=O)O)c2csc(N)n2)C(=O)N1C(=O)NS(=O)(=O)N1C[C@@H](NC(=O)NCc2cc(=O)c(O)cn2O)CC1=O" : reported Kinact = ?
OUT: 3.4 ×10³ /M/s

IN: Would you mind telling me what Kinact value was observed for "C[C@H]1[C@H](NC(=O)/C(=N\OC(C)(C)C(=O)O)c2csc(N)n2)C(=O)N1C(=O)NS(=O)(=O)N1C[C@@H](NC(=O)[C@H](CC(=O)O)NC(=O)c2cc(=O)c(O)c[nH]2)CC1=O" ?
OUT: 3.8 ×10⁴ /M/s

IN: Suppose we examine the compound "C[C@H]1[C@H](NC(=O)/C(=N\OC(C)(C)C(=O)O)c2csc(N)n2)C(=O)N1C(=O)NS(=O)(=O)N1N=C(c2cc(=O)c(O)c[nH]2)NCC1=O" ; what Kinact value has been reported?
OUT: 3.8 ×10³ /M/s
